Reported Activity is given for each of the following compounds.
molecular target: Phosphodiesterase 4 (Homo sapiens) (UniProt P27815+Q08499+Q07343+Q08493); experiment: Inhibitory activity towards cAMP Phosphodiesterase isolated from rabbit heart; format: protein assay; design: reference not given here; details: Oryctolagus cuniculus; target entry is the homologue from another species

>  <CPD SMILES>
CSc1nc(S)n2ncc(Br)c2n1

>  <Activity>
0.68

$$$$
>  <CPD SMILES>
CSc1nc(C)n2nccc2n1

>  <Activity>
0

$$$$
>  <CPD SMILES>
CCNc1nc(SC)nc2c(Br)cnn12

>  <Activity>
8

$$$$
>  <CPD SMILES>
CCN(CC)c1nc(SC)nc2ccnn12

>  <Activity>
12.2

$$$$
>  <CPD SMILES>
COc1nc(SC)nc2c(Br)cnn12

>  <Activity>
3.2

$$$$
>  <CPD SMILES>
CCCOc1nc(SC)nc2c(Br)cnn12

>  <Activity>
0.7

$$$$
>  <CPD SMILES>
CCCNc1nc(SC)nc2c(Br)cnn12

>  <Activity>
6.9

$$$$
>  <CPD SMILES>
CSc1nc(OC(C)C)n2ncc(Br)c2n1

>  <Activity>
4

$$$$
>  <CPD SMILES>
CCSc1nc(SC)nc2ccnn12

>  <Activity>
3.2

$$$$
>  <CPD SMILES>
CSc1ncnc2cc(-c3ccccc3)nn12

>  <Activity>
7.3

$$$$
>  <CPD SMILES>
COc1nc(SC)nc2ccnn12

>  <Activity>
0.5

$$$$
>  <CPD SMILES>
CCSc1nc(SC)nc2c(Br)cnn12

>  <Activity>
2.6

$$$$
>  <CPD SMILES>
CCCNc1nc(SC)nc2ccnn12

>  <Activity>
5.8

$$$$
>  <CPD SMILES>
CCN(CC)c1nc(SC)nc2c(Br)cnn12

>  <Activity>
6.2

$$$$
>  <CPD SMILES>
CCCCNc1nc(SC)nc2c(Br)cnn12

>  <Activity>
12.5

$$$$
>  <CPD SMILES>
CSc1nc(SC)n2ncc(Br)c2n1

>  <Activity>
1.5

$$$$
